Target: T1, purified recombinant human insulin receptor-exon 11 (human, UniProt P06213-2 28-1370, limits assumed)
T1 construct: also called IR
Experiment: competition with 125I-insulin (SPA)
Bridges are numbered along the chain shown (N, C = ends). Where no end group is shown, it is not given here.
# IR, binding relative to human insulin per record follows
Give your result in % as a bare value.

// below: answered binders
single-chain insulin PAK 1896, connecting peptide VGLSSGQ [B29A_A18Q_A22K] (ligand, disulfide 19-56, 42-47, 7-43) FVNQHLCGSHLVEALYLVCGERGFFYTPAVGLSSGQGIVEQCCTSICSLYQLEQYCNK | 38
single-chain insulin PAK 1735, connecting peptide VGRSSGK [A21G] (ligand, disulfide 19-56, 42-47, 7-43) FVNQHLCGSHLVEALYLVCGERGFFYTPKVGRSSGKGIVEQCCTSICSLYQLENYCG | 143
single-chain insulin PAK 1861, connecting peptide VGLGKGPGAGK [A18Q_A21G] (ligand) FVNQHLCGSHLVEALYLVCGERGFFYTPKVGLGKGPGAGKGIVEQCCTSICSLYQLEQYCG | 36
single-chain insulin PAK 1873, connecting peptide KGLSSGQ [B29A_A18Q] (ligand, disulfide 19-56, 42-47, 7-43) FVNQHLCGSHLVEALYLVCGERGFFYTPAKGLSSGQGIVEQCCTSICSLYQLEQYCN | 60
B(1-29)-B27E-B29A-TGLGKGQ-A(1-21)-A18Q Human insulin (PAK1845) (ligand, disulfide 19-56, 42-47, 7-43) FVNQHLCGSHLVEALYLVCGERGFFYEPATGLGKGQGIVEQCCTSICSLYQLEQYCN | 20

// switching to the query binder
For this binder ( B(1-29)-B29A-TGLGKGQ-A(1-21)-A18Q Human insulin (PAK1837) (ligand, disulfide 19-56, 42-47, 7-43) FVNQHLCGSHLVEALYLVCGERGFFYTPATGLGKGQGIVEQCCTSICSLYQLEQYCN ), measured IR, binding relative to human insulin is 71

These entries and their values trace back to patent US20090170750A1.
